meta.source: ChEMBL document CHEMBL4825695

test system: SARS-CoV-2; experiment: Antiviral activity against SARS-CoV-2 infected in African Green monkey Vero E6 cells assessed as reduction in viral plaques incubated for 48 hrs by […]; type: functional, organism-based; conditions: Severe acute respiratory syndrome coronavirus 2, Vero C1008, 48 h
pEC50: −log10 of the molar value.
Quick rule: pEC50 of at least 6 means Yes, below that means No.

Check out these entries, answers already filled in.
Problem: Check the entry COc1cccc2[nH]c(C(=O)N[C@@H](CC(C)C)C(=O)N[C@@H](C[C@@H]3CCNC3=O)C(O)S(=O)(=O)O)cc12 (stereo partly drawn) : does pEC50 equal or exceed 6?
Solution: No

Problem: Check this molecule for pEC50 at or above 6: COc1cccc2[nH]c(C(=O)N[C@@H](CC3CC3)C(=O)N[C@@H](C[C@@H]3CCNC3=O)C(O)S(=O)(=O)O)cc12 (stereo partly drawn)
Solution: No

Further cases:
Problem: Has O=C(N[C@@H](CC1CC1)C(=O)N[C@@H](C[C@@H]1CCNC1=O)C(O)S(=O)(=O)O)OCc1cccc(F)c1 (stereo partly drawn) a recorded pEC50 greater than or equal to 6?
Solution: Yes
